Listed here are compounds together with their documented pIC50.
# subject-of-test: HDAC2 (Homo sapiens)
# Sequence (Q92769 with tags, fused parts or gaps): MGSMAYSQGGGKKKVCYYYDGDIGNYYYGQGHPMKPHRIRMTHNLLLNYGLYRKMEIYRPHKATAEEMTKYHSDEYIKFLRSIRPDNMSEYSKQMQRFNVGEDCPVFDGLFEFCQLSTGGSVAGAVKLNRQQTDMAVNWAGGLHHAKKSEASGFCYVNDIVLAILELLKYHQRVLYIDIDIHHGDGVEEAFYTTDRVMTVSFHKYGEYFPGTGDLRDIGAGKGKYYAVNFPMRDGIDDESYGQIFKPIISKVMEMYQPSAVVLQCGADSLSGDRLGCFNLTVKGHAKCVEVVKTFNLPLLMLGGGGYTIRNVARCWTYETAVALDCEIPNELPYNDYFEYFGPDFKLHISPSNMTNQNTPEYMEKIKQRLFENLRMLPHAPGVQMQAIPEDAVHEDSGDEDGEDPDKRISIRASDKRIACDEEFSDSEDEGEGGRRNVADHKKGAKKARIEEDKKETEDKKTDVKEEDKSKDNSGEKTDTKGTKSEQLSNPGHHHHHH
# measurement-protocol: HDAC2 fluorescence inhibition assay (tBoc-Lys(Ac)-AMC)
pIC50: −log10 of the molar value.

Recorded pIC50, per entry:
{"compound": "Nc1ccc2nn(Cc3ccc(C(=O)Nc4ccccc4N)cc3)cc2c1 [Example 9]", "pIC50": "7.00 to 7.30"}
{"compound": "CN1CCN(CCCNC(=O)c2cnn(Cc3ccc(C(=O)Nc4ccccc4N)cc3)c2)CC1 [Example 156]", "pIC50": "7.00 to 7.30"}
{"compound": "CC(=O)Nc1ccc2c(C)nn(Cc3ccc(C(=O)Nc4ccccc4N)cc3)c2c1 [Example 87]", "pIC50": "7.00 to 7.30"}
{"compound": "Nc1ccccc1NC(=O)c1ccc(Cn2ncc3ccc(F)cc32)cc1 [Example 36]", "pIC50": "7.00 to 7.30"}

The observed pIC50 for Nc1ccccc1NC(=O)c1ccc(Cn2ncc3cc(NC(=O)N4CCOCC4)ccc32)cc1 [Example 21] when tested with HDAC2 (Homo sapiens) stands at ≥ 7.30
